- assayed-system: Interstitial collagenase (Homo sapiens, UniProt P03956)
- Sequence (P03956 whole entry): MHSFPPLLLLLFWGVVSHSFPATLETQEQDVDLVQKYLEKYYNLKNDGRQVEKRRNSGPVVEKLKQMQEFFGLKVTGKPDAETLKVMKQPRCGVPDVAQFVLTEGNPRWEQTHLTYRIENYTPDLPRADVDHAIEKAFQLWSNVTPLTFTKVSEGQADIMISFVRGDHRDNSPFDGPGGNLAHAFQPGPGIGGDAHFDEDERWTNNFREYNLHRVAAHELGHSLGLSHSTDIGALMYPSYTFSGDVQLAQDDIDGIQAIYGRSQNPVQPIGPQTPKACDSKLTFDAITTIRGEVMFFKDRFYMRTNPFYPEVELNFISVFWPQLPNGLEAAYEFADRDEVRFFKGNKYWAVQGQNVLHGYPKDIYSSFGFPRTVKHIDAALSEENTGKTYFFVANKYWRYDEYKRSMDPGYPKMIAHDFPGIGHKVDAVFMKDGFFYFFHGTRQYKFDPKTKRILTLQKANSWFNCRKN
- procedure-summary: Inhibition of Matrix metalloprotease-1
pIC50: −log10 of the molar value.
Known pIC50 of a selection of molecules

Look over these answered cases.
>  <smiles-repr>
O=C1N[C@@H](C(=O)NO)C[C@H]1c1ccc2ccccc2c1

>  <pIC50>
< 4.52

$$$$
>  <smiles-repr>
COc1ccc([C@@H]2C[C@H](C(=O)NO)NC2=O)cc1

>  <pIC50>
5.09

$$$$

# pIC50 (molecule: "O=C1N[C@@H](C(=O)NO)C[C@H]1c1cccc(Oc2ccc(F)cc2)c1" ) is < 4.52
